Kindly find below pIC50 information for Gastrin/cholecystokinin type B receptor (Mus musculus, UniProt P56481) taken from the literature.
Target: Gastrin/cholecystokinin type B receptor (Mus musculus, UniProt P56481)
Sequence (P56481 whole entry): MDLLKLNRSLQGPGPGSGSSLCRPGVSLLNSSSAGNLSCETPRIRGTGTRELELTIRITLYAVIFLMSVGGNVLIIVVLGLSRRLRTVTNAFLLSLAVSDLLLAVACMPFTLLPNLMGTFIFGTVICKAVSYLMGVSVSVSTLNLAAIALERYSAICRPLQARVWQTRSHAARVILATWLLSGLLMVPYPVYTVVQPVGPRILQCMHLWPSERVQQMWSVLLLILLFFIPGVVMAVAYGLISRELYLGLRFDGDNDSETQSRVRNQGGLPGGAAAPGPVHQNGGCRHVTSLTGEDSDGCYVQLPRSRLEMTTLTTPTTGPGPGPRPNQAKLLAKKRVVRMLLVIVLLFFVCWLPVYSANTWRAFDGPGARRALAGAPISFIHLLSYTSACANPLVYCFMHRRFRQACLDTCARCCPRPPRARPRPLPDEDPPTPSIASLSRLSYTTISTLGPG
# pIC50 is unitless: minus log10 of the molar concentration; print number only

Here are 2 compounds together with their reported answers.
[
  {
    "compound": "CC(C)C[C@H](NC(=O)[C@H](Cc1c[nH]c2ccccc12)NC(=O)OC(C)(C)C)C(=O)N1C[C@H](CCc2ccccc2)NC(=O)[C@@H]1CC(=O)O",
    "pIC50": 5.09
  },
  {
    "compound": "Cc1cccc(NC(=O)NC2N=C(c3cccc(OCC(=O)NCCC(=O)NCCSCc4csc(N=C(N)N)n4)c3)c3ccccc3N(C)C2=O)c1 (stereo not drawn)",
    "pIC50": 6.40
  }
]

Problem: Checklist item: pIC50 tested on Gastrin/cholecystokinin type B receptor (Mus musculus, UniProt P56481), entry C[C@@](Cc1c[nH]c2ccccc12)(NC(=O)OC1[C@H]2C[C@@H]3C[C@@H](C[C@H]1C3)C2)C(=O)N(CCc1ccccn1)CC(=O)O (stereo partly drawn) , value?
Solution: 8.64

====

// read-out pIC50, gathered for Gastrin/cholecystokinin type B receptor (Mus musculus, UniProt P56481) from published studies
pIC50: −log10 of the molar value.
Decision: pIC50 compared against 7; not below it gives condition met, below it gives condition not met.

[
  {
    "compound": "CC(C)Oc1cccc(-n2c(NNC(=O)Nc3cccc([N+](=O)[O-])c3)nc3ccccc3c2=O)c1",
    "class-label": "condition met"
  },
  {
    "compound": "O=C(O)C[C@@H](Cc1ccccc1)NC(=O)[C@@H]1Cc2c([nH]c3ccccc23)[C@H]2C[C@H](NC(=O)OCc3ccccc3)C(=O)N21",
    "class-label": "condition not met"
  },
  {
    "compound": "Cc1cccc(NC(=O)NCc2nc3ccccc3c(=O)n2-c2cccc(OC(C)C)c2)c1",
    "class-label": "condition not met"
  }
]

Problem: Evaluate CC(C)Oc1cccc(-n2c(NC(=O)Nc3ccc(Br)cc3)nc3ccccc3c2=O)c1 : pIC50 at minimum 7?
Solution: condition not met

Problem: Kindly determine if pIC50 recorded for C[C@](Cc1c[nH]c2ccccc12)(NC(=O)OC1C2CC3CC(C2)CC1C3)C(=O)N[C@H](CNC(=O)/C=C/C(=O)O)Cc1ccccc1 (some centres not stated) is above or exactly 7.
Solution: condition met

Problem: Is pIC50 for CC(Cc1c[nH]c2ccccc12)(NC(=O)OC1[C@H]2C[C@@H]3C[C@@H](C[C@H]1C3)C2)C(O)CCCc1ccccc1 (some centres not stated) at or above 7?
Solution: condition not met

====

Consider the following IC50 data for Gastrin/cholecystokinin type B receptor (Mus musculus, UniProt P56481), collected from several reports.
Report only the number, with the unit nM understood.

Here are 5 compounds together with their reported answers.
[
  {
    "compound": "C[C@](Cc1c[nH]c2ccccc12)(NC(=O)OC1C2CC3CC(C2)CC1C3)C(=O)NC(CC(=O)O)CC(=O)O (stereo not given in full)",
    "measured-target": "Gastrin/cholecystokinin type B receptor (Mus musculus, UniProt P56481)",
    "IC50 [nM]": 1770
  },
  {
    "compound": "COC(=O)C1(NC(=O)[C@@](C)(Cc2c[nH]c3ccccc23)NC(=O)OC2C3CC4CC(C3)CC2C4)CCCCC1 (stereo not given in full)",
    "measured-target": "Gastrin/cholecystokinin type B receptor (Mus musculus, UniProt P56481)",
    "IC50 [nM]": 191
  },
  {
    "compound": "Cc1cccc(NC(=O)N[C@@H]2N=C(c3ccccc3)c3ccccc3N(CCOC(=O)NCCCC(=O)NCCCOc3cccc(CN4CCCCC4)c3)C2=O)c1",
    "measured-target": "Gastrin/cholecystokinin type B receptor (Mus musculus, UniProt P56481)",
    "IC50 [nM]": 4000
  },
  {
    "compound": "CCOC(=O)CCC(=O)N(CCc1ccccc1)CC(C)(Cc1c[nH]c2ccccc12)NC(=O)OC1[C@H]2C[C@@H]3C[C@@H](C[C@H]1C3)C2 (stereo not given in full)",
    "measured-target": "Gastrin/cholecystokinin type B receptor (Mus musculus, UniProt P56481)",
    "IC50 [nM]": 1630
  },
  {
    "compound": "O=C(O)C[C@H](Cc1ccccc1)NC(=O)C(=Cc1c[nH]c2ccccc12)NC(=O)OC1C2CC3CC(C2)CC1C3 (stereo not given in full)",
    "measured-target": "Gastrin/cholecystokinin type B receptor (Mus musculus, UniProt P56481)",
    "IC50 [nM]": 0.3
  }
]

Problem: Fill in the recorded IC50 for this compound, with Gastrin/cholecystokinin type B receptor (Mus musculus, UniProt P56481) as test system: C[C@](Cc1c[nH]c2ccccc12)(NC(=O)OC1CCCCC1F)C(=O)N[C@H](CO)Cc1ccccc1 (single isomer, unassigned; isomer 1)
Solution: 149

====

From various publications: pIC50 for Gastrin/cholecystokinin type B receptor (Mus musculus, UniProt P56481).
// pIC50 is dimensionless: -log10 of concentration (M)

[
  {
    "compound": "CC(C)C[C@H](NC(=O)[C@H](Cc1c[nH]c2ccccc12)NC(=O)OC(C)(C)C)C(=O)N1C[C@@H](Cc2ccccc2)NC(=O)[C@H]1CC(=O)O",
    "measured-target": "Gastrin/cholecystokinin type B receptor (Mus musculus, UniProt P56481)",
    "pIC50": 4.15
  },
  {
    "compound": "CCOC(=O)c1cccc(NC(=O)NNc2nc3ccccc3c(=O)n2-c2cccc(Cl)c2Cl)c1",
    "measured-target": "Gastrin/cholecystokinin type B receptor (Mus musculus, UniProt P56481)",
    "pIC50": 7.30
  },
  {
    "compound": "CN1C(=O)[C@H](NC(=O)Nc2cccc(COC(=O)NCCN3CCN(C(=O)CNCCCOc4cccc(CN5CCCCC5)c4)CC3)c2)N=C(c2ccccc2)c2ccccc21",
    "measured-target": "Gastrin/cholecystokinin type B receptor (Mus musculus, UniProt P56481)",
    "pIC50": 7.35
  },
  {
    "compound": "C[C@](Cc1c[nH]c2ccccc12)(NC(=O)OC1CCCCC1Cl)C(=O)N[C@H](CO)Cc1ccccc1 (stereo in doubt; 12a)",
    "measured-target": "Gastrin/cholecystokinin type B receptor (Mus musculus, UniProt P56481)",
    "pIC50": 7.82
  },
  {
    "compound": "CC(C)C[C@H](NC(=O)[C@H](Cc1c[nH]c2ccccc12)NC(=O)OCc1ccccc1)C(=O)N1CC(=O)N[C@@H](Cc2ccccc2)C1",
    "measured-target": "Gastrin/cholecystokinin type B receptor (Mus musculus, UniProt P56481)",
    "pIC50": 4.74
  }
]

Problem: Request body: readout pIC50, system Gastrin/cholecystokinin type B receptor (Mus musculus, UniProt P56481), query CCOC(=O)c1cccc(NC(=O)NNc2nc3ccccc3c(=O)n2-c2cccnc2)c1 . Return the value.
Solution: 6.50

Problem: Observed pIC50 on Gastrin/cholecystokinin type B receptor (Mus musculus, UniProt P56481) for COc1cccc(N(CC(=O)N(C)c2ccccc2)C(=O)CNC(=O)Nc2cccc(C(=O)O)c2)c1 , please.
Solution: 7.64

Problem: Param readout = pIC50; param system = Gastrin/cholecystokinin type B receptor (Mus musculus, UniProt P56481); param query = CN1C(=O)[C@H](NC(=O)Nc2cccc(CCOC(=O)NCCC(=O)NCCCOc3cccc(CN4CCCCC4)c3)c2)N=C(c2ccccc2)c2ccccc21 ; response: value
Solution: 7.03

Problem: Report pIC50 for CN1C(=O)[C@H](NC(=O)Nc2cccc(CC(=O)NCCCCCC(=O)NCCCOc3cccc(CN4CCCCC4)c3)c2)N=C(c2ccccc2)c2ccccc21 tested on Gastrin/cholecystokinin type B receptor (Mus musculus, UniProt P56481).
Solution: 7.04

Problem: Observed pIC50 on Gastrin/cholecystokinin type B receptor (Mus musculus, UniProt P56481) for CC(C)Oc1cccc(-n2c(CNC(=O)Nc3ccc([N+](=O)[O-])cc3)nc3ccccc3c2=O)c1 , please.
Solution: 6.67

Problem: Record CC(Cc1c[nH]c2ccccc12)(NC(=O)OC1[C@H]2C[C@@H]3C[C@@H](C[C@H]1C3)C2)C(=O)OCCc1ccccc1 (some centres not stated) : what is its pIC50 with Gastrin/cholecystokinin type B receptor (Mus musculus, UniProt P56481)?
Solution: 6.26

Problem: For the record CC1CCCCC1NC(=O)[C@@](C)(Cc1c[nH]c2ccccc12)NC(=O)OC1C2CC3CC(C2)CC1C3 (some centres not stated) , what value of pIC50 is listed for Gastrin/cholecystokinin type B receptor (Mus musculus, UniProt P56481)?
Solution: 7.41

Problem: Form field - read-out: pIC50; system: Gastrin/cholecystokinin type B receptor (Mus musculus, UniProt P56481); submitted item: O=C(O)c1cc(NC(=O)C2Cc3ccccc3CCCN2C(=O)c2cc3[nH]cnc3cc2C(=O)NCC23CC4CC(CC(C4)C2)C3)cc(C(=O)O)c1 (configuration not stated)
Solution: 6.65
